Assay Conditions: in 2-butanone, 323.15 K
Property Name: solubility (mole fraction)
Form field (numeric): enter value without unit.

Task: Please give the measured solubility (mole fraction) for this compound: c1ccc2[nH]c(-c3cscn3)nc2c1
Result: 0.0025

====

Assay Conditions: in isobutanol, 318.15 K
Property Name: solubility (mole fraction)
Form field (numeric): enter value without unit.

Task: Please give the measured solubility (mole fraction) for this compound: c1ccc2[nH]c(-c3cscn3)nc2c1
Result: 0.00258

====

Assay Conditions: in n-propanol, 303.15 K
Property Name: solubility (mole fraction)
Form field (numeric): enter value without unit.

Task: Please give the measured solubility (mole fraction) for this compound: c1ccc2[nH]c(-c3cscn3)nc2c1
Result: 0.00217

Hello, the source for this data is BigSolDB 2.1, in case you need it.
